molecular target: UniProt P54761
Sequence (P54761 16-539 limits assumed): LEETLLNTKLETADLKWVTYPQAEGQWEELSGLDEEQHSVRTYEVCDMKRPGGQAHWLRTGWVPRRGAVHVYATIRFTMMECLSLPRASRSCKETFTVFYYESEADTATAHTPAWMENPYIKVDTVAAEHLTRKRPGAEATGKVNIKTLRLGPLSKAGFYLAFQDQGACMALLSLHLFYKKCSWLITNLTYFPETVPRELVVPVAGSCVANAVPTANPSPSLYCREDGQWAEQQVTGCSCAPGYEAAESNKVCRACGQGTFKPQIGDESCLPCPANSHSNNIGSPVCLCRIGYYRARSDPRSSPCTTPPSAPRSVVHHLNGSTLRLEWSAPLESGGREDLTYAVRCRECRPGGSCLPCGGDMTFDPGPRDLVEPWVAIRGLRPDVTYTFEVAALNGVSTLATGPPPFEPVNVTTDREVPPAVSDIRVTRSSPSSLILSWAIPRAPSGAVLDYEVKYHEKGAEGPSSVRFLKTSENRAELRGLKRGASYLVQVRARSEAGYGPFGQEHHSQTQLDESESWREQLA
value type: IC50

>>> test_result("Oc1c(Br)cc(CN2CCOCC2)c2cccnc12")
"> 150 µM"

====

Target: EphrinB2-EphB2 (Homo sapiens)
Construct: soluble human EphB1-His, EphB2-His, and EphB4-His ectodomains; commercially available human EphrinB1-Fc (EB1), EphrinB2-Fc (EB2), and EphrinB3-Fc (EB3) ectodomain proteins; purchased
Sequence (P29323 19-543 limits assumed): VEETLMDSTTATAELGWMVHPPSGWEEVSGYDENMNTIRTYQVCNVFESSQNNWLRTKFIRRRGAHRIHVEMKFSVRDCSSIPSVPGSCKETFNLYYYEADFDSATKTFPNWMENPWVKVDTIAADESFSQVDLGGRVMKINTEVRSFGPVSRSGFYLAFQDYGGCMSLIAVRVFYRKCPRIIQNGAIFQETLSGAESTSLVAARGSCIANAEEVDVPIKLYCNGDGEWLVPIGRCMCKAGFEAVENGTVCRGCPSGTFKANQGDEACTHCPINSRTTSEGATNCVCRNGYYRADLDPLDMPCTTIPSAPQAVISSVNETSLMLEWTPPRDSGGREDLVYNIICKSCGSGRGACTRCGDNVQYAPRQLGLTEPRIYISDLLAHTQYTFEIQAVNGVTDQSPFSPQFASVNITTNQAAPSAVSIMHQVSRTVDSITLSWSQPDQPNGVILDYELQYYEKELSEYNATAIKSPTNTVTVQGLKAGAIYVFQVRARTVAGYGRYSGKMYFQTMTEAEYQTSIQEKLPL
Assay: Octet tetramerization inhibition, immobilized human EphrinB2 binding to 50 nM soluble human EphB2
Conditions: Absolute AUC/IC50, Table A, EphrinB2-EphB2
pIC50: −log10 of the molar value.
value type: pIC50

>>> test_result("O=C(Cc1ccccc1)Nc1ccc(N2CCN(Cc3cc(Br)c(O)c4ncccc34)CC2)cc1 [Compound 52]")
"< 5.49"
>>> test_result("Cc1ccc2c(CN3CCN(c4ccc(Br)cc4)CC3)ccc(O)c2n1 [Compound 61]")
"< 5.80"
>>> test_result("Oc1ccc(CN2CCN(c3ccc(Br)cc3)CC2)c2cccnc12 [Compound 27]")
"< 5.80"
>>> test_result("CC(=O)Nc1ccc(N2CCN(Cc3ccc(O)c4ncccc34)CC2)cc1 [Compound 50]")
"< 5.49"
